The entries below are paired with their reported viability, T/C.
Test system: 361931-004-R-J1-PDC multicell spheroid viability
experimental-details: Anticancer human tumor 361931-004-R-J1-PDC patient-derived colon adenocarcinoma cell line growth inhibition [PI3K]
assay-context: second compound 0.1 µM; first compound 0.00949 µM; hits give low values
Unit % implied. Number only.

[ask] // returns reported viability, T/C for input Cn1cnc2c(F)c(Nc3ccc(Br)cc3Cl)c(C(=O)NOCCO)cc21 + Cc1nc(NC(=O)N2CCCC2C(N)=O)sc1-c1ccnc(C(C)(C)C(F)(F)F)c1
[reply] 107

[ask] If you can, please state the reported viability, T/C value of Cn1cnc2c(F)c(Nc3ccc(Br)cc3Cl)c(C(=O)NOCCO)cc21 + COc1c(OCCCN2CCOCC2)ccc2c3n(c(=NC(=O)c4cnc(N)nc4)nc12)CCN3 .
[reply] 81.5

[ask] I'd like to know its viability, T/C. The compound in question is Cn1cnc2c(F)c(Nc3ccc(Br)cc3Cl)c(C(=O)NOCCO)cc21 + CC(Nc1ccc2c(c1)OCCn1cc(N3C(=O)OCC3C(F)F)nc1-2)C(N)=O
[reply] 90.8

[ask] Any idea what its viability, T/C is? The compound is Cn1cnc2c(F)c(Nc3ccc(Br)cc3Cl)c(C(=O)NOCCO)cc21 + CC(Nc1ncnc2nc[nH]c12)c1cc2cccc(Cl)c2c(=O)n1-c1ccccc1
[reply] 109

* * *

Tested on: 361931-004-R-J1-PDC multicell spheroid viability
experimental-details: Anticancer human tumor 361931-004-R-J1-PDC cell line growth inhibition [PI3K];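 note: spheroids exposed to agents for seven days before readout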
assay-context: second compound 1 µM; first compound 10 µM; hits give low values
The label is Yes for viability, T/C below 7% and No for viability, T/C equal to or exceeding 7%.

Example entries begin here.
[ask] Record CNC(=O)c1ccc(N2C(=S)N(c3ccc(C#N)c(C(F)(F)F)c3)C(=O)C2(C)C)cc1F + COc1c(OCCCN2CCOCC2)ccc2c3n(c(=NC(=O)c4cnc(N)nc4)nc12)CCN3 : is its viability, T/C strictly below 7%?
[reply] No

[ask] Regarding CC1(C)CCC(CN2CCN(c3ccc(C(=O)NS(=O)(=O)c4ccc(NCC5CCOCC5)c([N+](=O)[O-])c4)c(Oc4cnc5[nH]ccc5c4)c3)CC2)=C(c2ccc(Cl)cc2)C1 + CC(Nc1ccc2c(c1)OCCn1cc(N3C(=O)OCC3C(F)F)nc1-2)C(N)=O , kindly confirm whether its viability, T/C is beneath 7%.
[reply] Yes

[ask] I wonder whether CC(Cn1ccc(-c2ccc(C#N)c(Cl)c2)n1)NC(=O)c1cc(C(C)O)[nH]n1 (stereo not given) + COc1c(OCCCN2CCOCC2)ccc2c3n(c(=NC(=O)c4cnc(N)nc4)nc12)CCN3 has viability, T/C below 7%. Can you tell?
[reply] No

[ask] Record CCCS(=O)(=O)Nc1ccc(F)c(C(=O)c2c[nH]c3ncc(-c4ccc(Cl)cc4)cc23)c1F + CC(Nc1ncnc2nc[nH]c12)c1cc2cccc(Cl)c2c(=O)n1-c1ccccc1 : is its viability, T/C strictly below 7%?
[reply] No

Moving on to the next molecule.
[ask] Is 7% strictly greater than the molecule's reported viability, T/C? molecule: CC1(C)CCC(Nc2ncc(C(F)(F)F)c(-c3c[nH]c4c(P(C)(C)=O)c(C#N)ccc34)n2)CN1 (stereo not given) + CC(Nc1ncnc2nc[nH]c12)c1cc2cccc(Cl)c2c(=O)n1-c1ccccc1
[reply] No
